The reader will find reported composite z-score values listed item by item below.
# targetOrSystem: Dickkopf-related protein 1 (Homo sapiens) (UniProt O94907)
# Sequence (O94907 whole entry, looked up): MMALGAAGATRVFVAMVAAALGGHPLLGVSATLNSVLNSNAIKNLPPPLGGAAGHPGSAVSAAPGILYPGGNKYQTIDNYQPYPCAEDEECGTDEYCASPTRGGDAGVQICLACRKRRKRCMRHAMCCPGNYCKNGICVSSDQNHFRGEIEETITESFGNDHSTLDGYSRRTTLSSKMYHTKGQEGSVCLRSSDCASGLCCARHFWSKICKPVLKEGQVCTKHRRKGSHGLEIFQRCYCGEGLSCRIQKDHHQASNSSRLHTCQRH
# procedureSummary: DKK1 binders on small-molecule microarrays, primary screen, biochemical, small-molecule microarray, 635 nm fluorescence scan (AID 1106);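 further: score merges emission near 667 nm with signal to noise over three replicate slides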
# assaySetup: DKK1 binding, higher = more signal
assayMetric: composite z-score

>>> experimentalvalue("CCc1cc2c(nc1CC)CCN(CCC(C)=NOC[C@@H](O)COCc1ccco1)C2")
1.7
>>> experimentalvalue("CN(C)c1ccc(C(O)C2C=CC3C(=O)N(c4ccccc4)C(=O)C3N2Nc2ccccc2F)cc1 (stereo unspecified)")
-0.606
>>> experimentalvalue("O=C(CS)NCCCCCNC(=O)[C@H]1C[C@H]2C(=O)N3CCC[C@H]3C(=O)N2[C@H]1c1cccc(OCCO)c1")
1.57
>>> experimentalvalue("COc1ccc(COC(=O)NN=C2C[C@@H](O)[C@@H](O)[C@@H]3[C@@H]4C(=O)N(c5ccc(F)cc5F)C(=O)[C@@H]4CC[C@@H]23)cc1")
-0.69
>>> experimentalvalue("C=CC[C@@H]1C=C[C@H](ON=C[C@@H](OC)[C@H](C)C=CCC(=O)OC)[C@@H](CO)O1")
0.17
>>> experimentalvalue("COc1ccccc1CN1C(=O)c2ccccc2[C@@H](C(=O)NCC(F)(F)F)[C@@H]1c1ccc(CO)cc1")
0.0666
>>> experimentalvalue("O=C1O[C@@H](c2ccccc2)[C@@H](c2ccccc2)N2[C@@H](c3ccccc3OCCO)[C@]3(C(=O)Nc4ccc(C#CCCO)cc43)[C@@H](C(=O)O)[C@H]12")
-0.167
>>> experimentalvalue("COC(=O)[C@H](C)NC(=O)[C@@H](C)CO")
0.338
>>> experimentalvalue("O=C1C[C@]2(c3ccc([N+](=O)[O-])cc3)C(=O)N(CCN3CCOCC3)c3cc(CO)ccc3[C@H]2N1CC12CC3CC(CC(C3)C1)C2")
-1.22
>>> experimentalvalue("CO[C@@H]1COC(=O)CC=C[C@@H](C)COC(=O)[C@H](COCc2ccccc2)NC(=O)CC=C[C@H]1C")
1.64
>>> experimentalvalue("COC(=O)CC=C[C@H](C)[C@@H](OCc1ccccc1Br)C(C)C")
0.292
>>> experimentalvalue("COC(=O)[C@@]1(Cc2ccc(OC)cc2)[C@H]2c3cc(C(=O)N4CCCC4)n(Cc4cc(F)c(F)c(F)c4)c3C[C@H]2CN1C(=O)c1ccccc1")
-0.279
>>> experimentalvalue("COCC(=C=CC[C@@H](O)c1ccccc1OCCO)CCO")
0.335
>>> experimentalvalue("CCN1C(=O)[C@H]2[C@H]3[C@H](O)[C@H](O)CC(=NOC(C)CN4CCCCc5nc(C)c(C)cc54)[C@@H]3CC[C@H]2C1=O (stereo partly specified)")
0.78
>>> experimentalvalue("COc1ccc(O[C@H]2C=C[C@@H](c3ccccc3)O[C@@H]2COC(=O)CCC(C)=NOCC[C@@H]2C=C[C@H](OC(C)=O)[C@@H](COC(C)=O)O2)cc1")
0.371
>>> experimentalvalue("Cc1ccc(S[C@]2(C(=O)NCC(F)(F)F)CC(=O)N(Cc3ccccc3Cl)[C@@H]2c2ccc(CO)cc2I)cc1")
-1.05
>>> experimentalvalue("CCOC(=O)C1=CC[C@H]2C(=O)N(CC)C(=O)[C@@H]12")
0.0851
>>> experimentalvalue("CCCNC(=O)[C@@H]1c2ccccc2C(=O)N(Cc2ccccc2Cl)[C@H]1c1ccc(CO)cc1")
0.649
>>> experimentalvalue("CCCCCCc1nc(CCCc2cc3c(c(CCCCCC)n2)[Si](C(C)C)(C(C)C)O[C@H]3c2ccccc2)cc2c1[Si](C(C)C)(C(C)C)O[C@H]2c1ccccc1")
0.476
>>> experimentalvalue("CC(=O)OC[C@H]1O[C@@H](ON=C(C)CCN2CCc3nc(-c4ccccc4)c(-c4ccccc4)cc3C2)[C@H](OC(C)=O)[C@@H](OC(C)=O)[C@@H]1OC(C)=O")
0.525
>>> experimentalvalue("COc1ccc(CCNC(=O)[C@@H]2c3ccccc3C(=O)N(c3ccc(C)cn3)[C@H]2c2ccc(CO)cc2)cc1")
-2.4
>>> experimentalvalue("CC(C)[C@H](NC(=O)OC(C)(C)C)[C@@H](O)CC(=O)OC(C)(C)C")
-0.327
>>> experimentalvalue("C[C@@H](c1ccccc1)N1C(=O)[C@H]2[C@H]3[C@H](O)C=CC(=O)[C@@H]3CC[C@H]2C1=O")
0.557
>>> experimentalvalue("O[C@@H](Cc1ccccc1)[C@H]1C2C=CCCC(c3ccccc3)=C2CN1Cc1cccc(Cl)c1 (stereo partly specified)")
0.473
>>> experimentalvalue("CC(=O)OC[C@H]1O[C@H](C#CCCCc2ccccc2)C=C[C@@H]1OC(C)=O")
0.3
>>> experimentalvalue("CC(C)OC(=O)C=C1C[C@@H](c2ccc(C#N)cc2)O[C@@H](c2ccc(C#N)cc2)O1")
0.189
>>> experimentalvalue("CCOC(=O)CCN1C(=O)[C@H]2[C@H]3[C@H](O)[C@H](O)CC(=O)[C@H]3CC[C@H]2C1=O")
0.745
>>> experimentalvalue("COc1cccc([C@H]2Oc3ccc(OC)cc3C(=NO[C@H](C)c3cn([C@@H]4COC[C@H]4O)nn3)[C@@H]2O)c1")
0.0385
>>> experimentalvalue("CCOC(=O)[C@H](Cc1ccccc1)NC(=O)CCC1CC(OC(=O)NCCc2ccc(F)cc2)CC2(CCCC(COC(=O)NCC(c3ccccc3)c3ccccc3)O2)O1 (stereo partly specified)")
0.898
>>> experimentalvalue("COc1ccc(-c2ccc3c(n2)CCCN3CC(O)CN2CCCc3nc(C)c(C)cc32)cc1 (stereo unspecified)")
1.39
>>> experimentalvalue("C[C@H](c1ccccc1)N1C(=O)[C@H]2[C@H]3[C@H](O)[C@H](O)CC(=O)[C@@H]3CC[C@H]2C1=O")
0.822
